Task for the reader: assign each of the following compounds its reported CC50 at 72 h.
Test: Cytotoxicity against MDCK cells assessed as cell viability after 72 hrs by MTS assay
Type: cell-based, Canis lupus familiaris
Details: dog
Numbers only, in µM.

stdin: Indicate its recorded CC50 at 72 h; the compound in question is C1C[C@H]2[C@H]3[C@H]4[C@@H]1[C@@H]1[C@H]2[C@@H]2[C@H]3[C@@H]3CNC[C@@H]3[C@H]4[C@H]12
stdout: 3.7

stdin: Indicate its recorded CC50 at 72 h; the compound in question is C1=C[C@H]2[C@H]3[C@H]4[C@@H]1[C@@H]1[C@H]2[C@@H]2[C@H]3[C@@H]3CNC[C@@H]3[C@H]4[C@H]12
stdout: 11

Others:
stdin: Indicate its recorded CC50 at 72 h; the compound in question is N=C(N)N1C[C@@H]2[C@H](C1)[C@@H]1[C@@H]3[C@H]4CC[C@H]5[C@@H]3[C@H]2[C@H]2[C@@H]5[C@@H]4[C@@H]12
stdout: 4.6

* * *

Task for the reader: assign each of the following compounds its reported inhibition.
Target: Matrix protein 2 (Influenza A virus) (UniProt P06821)
Sequence (P06821 whole entry): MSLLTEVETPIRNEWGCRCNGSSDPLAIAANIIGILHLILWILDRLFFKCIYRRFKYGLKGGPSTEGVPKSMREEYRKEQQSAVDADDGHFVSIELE
Format: cell membranes
Conditions: Influenza A virus (A/udorn/1972(H3N2)); 100 uM
Answer shape: numeric part, then the unit.

Consider the reported inhibition for these compounds:
stdin: Indicate its recorded inhibition; the compound in question is C1C[C@H]2[C@H]3[C@H]4[C@@H]1[C@@H]1[C@H]2[C@@H]2[C@H]3[C@@H]3CNC[C@@H]3[C@H]4[C@H]12
stdout: 98.1%

stdin: Indicate its recorded inhibition; the compound in question is N=C(N)N1C[C@@H]2[C@H](C1)[C@@H]1[C@@H]3[C@H]4CC[C@H]5[C@@H]3[C@H]2[C@H]2[C@@H]5[C@@H]4[C@@H]12
stdout: 90.6%

stdin: Indicate its recorded inhibition; the compound in question is N=C(N)N1C[C@@H]2[C@H](C1)[C@@H]1[C@@H]3[C@H]4C=C[C@H]5[C@@H]3[C@H]2[C@H]2[C@@H]5[C@@H]4[C@@H]12
stdout: 89.6%

stdin: Indicate its recorded inhibition; the compound in question is C1=C[C@H]2[C@H]3[C@H]4[C@@H]1[C@@H]1[C@H]2[C@@H]2[C@H]3[C@@H]3CNC[C@@H]3[C@H]4[C@H]12
stdout: 96.4%

Can you give me inhibition for all of these, one by one?
1. Brc1ccc(CNC23CC4CC(CC(C4)C2)C3)s1
2. C1C2[C@@H]3[C@H]2[C@@H]2C1[C@H]3[C@@H]1CNC[C@@H]12

stdout:
1. 77%
2. 93.7%

Can you give me inhibition for all of these, one by one?
1. N=C(N)N1CC2C3CCC(C4CCC43)C2C1 (stereo not drawn)
2. N=C(N)N1C[C@@H]2[C@H](C1)[C@H]1C3CC4[C@H]([C@H]41)[C@@H]32

stdout:
94.5%
99%

* * *

What follows is a collection of IC50 values obtained with Matrix protein 2 (Influenza A virus).
Sequence (P06821 whole entry): as above
Give bare numbers, in nM.

Consider the reported IC50 for these compounds:
stdin: Indicate its recorded IC50; the compound in question is N=C(N)N1C[C@@H]2[C@H](C1)[C@H]1C3CC4[C@H]([C@H]41)[C@@H]32
stdout: 800

stdin: Indicate its recorded IC50; the compound in question is C1=C[C@H]2[C@H]3[C@H]4[C@@H]1[C@@H]1[C@H]2[C@@H]2[C@H]3[C@@H]3CNC[C@@H]3[C@H]4[C@H]12
stdout: 2600

Now turn to the next compound.
stdin: Indicate its recorded IC50; the compound in question is C1C[C@H]2[C@H]3[C@H]4[C@@H]1[C@@H]1[C@H]2[C@@H]2[C@H]3[C@@H]3CNC[C@@H]3[C@H]4[C@H]12
stdout: 2100
